TESTED_TARGET: MUC1 on HCT116/MUC1 cells (human, UniProt P15941 24-1255)
Sequence (P15941 24-1097, chain 1 of 2): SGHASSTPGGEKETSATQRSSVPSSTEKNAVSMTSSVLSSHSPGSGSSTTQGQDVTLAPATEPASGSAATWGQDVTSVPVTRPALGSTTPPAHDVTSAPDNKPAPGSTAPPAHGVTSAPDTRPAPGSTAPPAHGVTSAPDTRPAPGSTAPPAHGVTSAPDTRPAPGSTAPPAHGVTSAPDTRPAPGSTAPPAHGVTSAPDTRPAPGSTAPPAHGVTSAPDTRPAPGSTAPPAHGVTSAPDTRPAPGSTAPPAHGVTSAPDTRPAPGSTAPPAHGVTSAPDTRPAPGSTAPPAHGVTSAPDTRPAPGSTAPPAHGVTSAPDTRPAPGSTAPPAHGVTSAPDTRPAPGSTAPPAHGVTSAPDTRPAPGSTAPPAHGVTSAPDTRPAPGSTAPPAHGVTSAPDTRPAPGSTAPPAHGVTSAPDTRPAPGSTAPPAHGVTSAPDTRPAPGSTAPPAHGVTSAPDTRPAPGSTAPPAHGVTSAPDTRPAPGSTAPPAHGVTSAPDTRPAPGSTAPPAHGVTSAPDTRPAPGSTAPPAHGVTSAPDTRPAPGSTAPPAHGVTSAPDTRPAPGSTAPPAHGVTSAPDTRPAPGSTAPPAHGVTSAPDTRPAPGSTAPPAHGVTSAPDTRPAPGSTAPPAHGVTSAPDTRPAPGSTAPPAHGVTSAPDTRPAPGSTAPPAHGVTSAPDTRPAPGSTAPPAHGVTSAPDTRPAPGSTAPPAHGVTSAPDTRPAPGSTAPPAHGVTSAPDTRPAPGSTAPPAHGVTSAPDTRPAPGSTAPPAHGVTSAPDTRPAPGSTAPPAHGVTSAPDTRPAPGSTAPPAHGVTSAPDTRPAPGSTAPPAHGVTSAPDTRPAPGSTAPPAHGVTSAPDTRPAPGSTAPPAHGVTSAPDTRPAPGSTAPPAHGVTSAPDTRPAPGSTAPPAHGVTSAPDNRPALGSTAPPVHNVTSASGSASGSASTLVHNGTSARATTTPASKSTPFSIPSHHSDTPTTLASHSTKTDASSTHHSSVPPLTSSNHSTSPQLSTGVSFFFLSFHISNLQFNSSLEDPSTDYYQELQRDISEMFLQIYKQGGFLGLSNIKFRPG
Sequence (P15941 1098-1255, chain 2 of 2): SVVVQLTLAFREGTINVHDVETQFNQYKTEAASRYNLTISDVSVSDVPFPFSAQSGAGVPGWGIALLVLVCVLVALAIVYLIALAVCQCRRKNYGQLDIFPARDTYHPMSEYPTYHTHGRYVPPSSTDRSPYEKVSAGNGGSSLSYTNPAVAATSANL
TEST: flow cytometry on HCT116/MUC1 cells; antibody at 0.045725 nM
EXPERIMENTAL_ENDPOINT: FACS titration signal
Write the value as a bare number.

Examples with answers:
{"BINDER": "VH1 + VL4 (antibody, V domains shown) VH: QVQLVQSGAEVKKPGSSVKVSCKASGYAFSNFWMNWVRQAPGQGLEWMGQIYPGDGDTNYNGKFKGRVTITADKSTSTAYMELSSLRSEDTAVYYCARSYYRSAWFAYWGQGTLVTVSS VL: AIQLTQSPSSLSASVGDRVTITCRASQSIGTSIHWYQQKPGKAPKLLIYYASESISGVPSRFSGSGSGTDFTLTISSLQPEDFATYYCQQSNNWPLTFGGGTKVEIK", "FACS titration signal": 5.99}
{"BINDER": "VH1 + VL3 (antibody, V domains shown) VH: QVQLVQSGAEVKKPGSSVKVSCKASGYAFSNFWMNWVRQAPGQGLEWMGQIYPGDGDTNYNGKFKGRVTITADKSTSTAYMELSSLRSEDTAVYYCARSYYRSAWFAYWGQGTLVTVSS VL: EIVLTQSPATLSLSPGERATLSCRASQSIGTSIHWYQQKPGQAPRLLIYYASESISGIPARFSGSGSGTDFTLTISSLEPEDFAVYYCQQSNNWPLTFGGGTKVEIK", "FACS titration signal": 8.96}
{"BINDER": "VH5 + VL2 (antibody, V domains shown) VH: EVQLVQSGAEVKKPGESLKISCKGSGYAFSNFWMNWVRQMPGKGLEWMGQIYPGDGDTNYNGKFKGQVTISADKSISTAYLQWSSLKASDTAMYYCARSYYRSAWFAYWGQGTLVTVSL VL: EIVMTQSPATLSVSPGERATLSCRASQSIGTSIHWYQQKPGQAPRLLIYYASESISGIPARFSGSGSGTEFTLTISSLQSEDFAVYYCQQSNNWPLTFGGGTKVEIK", "FACS titration signal": 6.76}

The record that follows has no FACS titration signal shown yet.
// FACS titration signal lookup, binder = VH2 + VL3 (antibody, V domains shown) VH: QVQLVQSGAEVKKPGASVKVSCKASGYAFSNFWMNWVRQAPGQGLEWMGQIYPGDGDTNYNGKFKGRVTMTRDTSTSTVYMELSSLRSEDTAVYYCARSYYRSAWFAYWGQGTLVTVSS VL: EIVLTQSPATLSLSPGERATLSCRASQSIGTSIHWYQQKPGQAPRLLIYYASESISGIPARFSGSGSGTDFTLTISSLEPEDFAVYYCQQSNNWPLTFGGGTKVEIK , result: 5.46
